Where do these numbers come from? They come from paper PMC5531557.

// endpoint IC50 / system UniProt:B5L5V5
Sequence (B5L5V5 entry or part of it): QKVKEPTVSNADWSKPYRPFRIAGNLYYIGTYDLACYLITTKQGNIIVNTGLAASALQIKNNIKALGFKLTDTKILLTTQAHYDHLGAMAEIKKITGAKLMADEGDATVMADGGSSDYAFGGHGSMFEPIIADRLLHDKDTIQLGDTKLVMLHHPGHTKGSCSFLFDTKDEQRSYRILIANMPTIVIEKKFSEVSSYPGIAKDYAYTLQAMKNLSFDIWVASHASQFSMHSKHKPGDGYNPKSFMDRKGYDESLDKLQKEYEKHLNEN

>  <COMPOUND STRING>
O=C(O)c1cccc(C(=O)O)n1

>  <IC50, µM>
460

$$$$
>  <COMPOUND STRING>
O=C(O)CN(CCN(CC(=O)O)CC(=O)O)CC(=O)O

>  <IC50, µM>
113

$$$$
